molecular target: Bcl-xL, Q07817; assay: peptide SPOT array, c-Myc-tagged receptor at 1 uM or 100 nM, anti-c-Myc-Cy3
Sequence (Q07817 1-209): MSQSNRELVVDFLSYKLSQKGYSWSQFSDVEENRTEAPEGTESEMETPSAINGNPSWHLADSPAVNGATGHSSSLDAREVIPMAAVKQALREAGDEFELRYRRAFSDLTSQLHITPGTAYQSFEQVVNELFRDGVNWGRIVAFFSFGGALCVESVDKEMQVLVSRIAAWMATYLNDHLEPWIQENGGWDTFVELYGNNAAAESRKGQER
quantity name: SPOT signal as a fraction of Bim BH3's signal on the same receptor and array

PKIYEGAARKLNVSSDTVQHGVEGLT [COMMD2] = 0.03
TETKATFGVHLKIVGDWTERFRDLLL [NOX4] = 0.16
VDKLKTLSETLLEMSSLFQRSGSGQM [ABCA13] = 0.03
SFLSAHCASHLAWFLDSLTSLSQRLQ [TMEM214] = 0.08

a: SALETQVAAADQALADDYLAQLSLEP [TRO]
b: NDDTPWIARTDDNLADELTAILSAPA [GBP6]
c: SHALICISHWILGIGDRHLNNFMVAM [PRKDC]
Sort ascending by SPOT signal as a fraction of Bim BH3's signal on the same receptor and array. Output spec: labels arranged per the requested ranking.
a, c, b
(a: 0.01, c: 0.02, b: 0.04)
